molecular target: human serum albumin (human) (UniProt P02768); test: ELISA, lysate on plate-bound antigen
Sequence (P02768 25-609 limits assumed): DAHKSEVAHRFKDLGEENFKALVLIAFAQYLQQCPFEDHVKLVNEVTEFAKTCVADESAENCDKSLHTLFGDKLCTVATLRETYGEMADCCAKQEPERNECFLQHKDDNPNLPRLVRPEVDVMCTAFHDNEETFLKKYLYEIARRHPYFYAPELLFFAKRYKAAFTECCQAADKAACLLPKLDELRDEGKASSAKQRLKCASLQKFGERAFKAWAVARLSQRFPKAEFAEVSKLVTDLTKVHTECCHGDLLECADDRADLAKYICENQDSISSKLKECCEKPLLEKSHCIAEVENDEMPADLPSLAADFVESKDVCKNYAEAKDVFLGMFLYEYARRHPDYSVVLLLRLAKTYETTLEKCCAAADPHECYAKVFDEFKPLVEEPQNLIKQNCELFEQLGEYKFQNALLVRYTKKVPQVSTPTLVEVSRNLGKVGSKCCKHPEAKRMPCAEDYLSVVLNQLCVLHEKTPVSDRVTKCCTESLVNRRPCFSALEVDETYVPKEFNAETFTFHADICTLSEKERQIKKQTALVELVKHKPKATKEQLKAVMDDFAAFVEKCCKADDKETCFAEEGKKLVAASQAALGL
Measure name: ELISA HSA (RSU)

ISOP121GR5P1A2 (designed binder, not shown: small tags and cut ends, FN3 domain; E. coli lysate in the ELISA) LPAPKNLVVSRVTEDSARLSWTAPDAAFDSFKIQYIERYIPGEAIQLNVPGSERSYDLTGLKPGTEYSVIIPGVKGGRNSFPLWAWFTT | 720
ISOP121GR5P1F7 (designed binder, not shown: small tags and cut ends, FN3 domain; E. coli lysate in the ELISA) LPAPKNLVVSRVTEDSARLSWTAPDAAFDSFGINYVERASEGEAIDLGVPGSERSYDLTGLKPGTEYFVKIFGVKGGIPSVPLWAWFTT | 720
ISOP194ER9P1A3 (designed binder, not shown: small tags and cut ends, FN3 domain; E. coli lysate in the ELISA) LPAPKNLVVSRVTEDSARLSWTAPDAAFDSFRIAYYETMVSGEAIVLTVPGSERSYDLTGLKPGTEYAVIIKGVKGGMVSWPLSAIFTT | 800
ISOP121BR5P1H6 (designed binder, not shown: small tags and cut ends, FN3 domain; E. coli lysate in the ELISA) LPAPKNLVVSRVTEDSARLSWGYIDVSYFDSFLIQYQESEKVGEAIVLTVPGSERSYDLTGLKPGTEYTVSIYGVYSRPKAEFTSNPLSAIFTT | 1040
ISOP121GR5P1D2 (designed binder, not shown: small tags and cut ends, FN3 domain; E. coli lysate in the ELISA) LPAPKNLVVSRVTEDSARLSWTAPDAAFDSFHILYQERAQSGEAIGLVVPGSERSYDLTGLKPATEYSVQIFGVKGGKLSNPLWAWFTT | 640

// provenance: patent US20180162928A1
